Source: patent US8399465B2

Please provide measured pIC50 for the entries that follow.
Tested on: LTB4 production in murine blood (LTA4H)
Test: LTB4 production by calcium ionophore-stimulated murine blood for LTA4H inhibitor activity
Assay type: cell-based, CD-1 mice
Details: Mus musculus; murine blood diluted 1 in 15, A23187 stimulated; single determination or average; mark after value = form tested: ′ free base, ″ hydrochloride, ^ formate; read-out: IC50
Where a name gives a salt, the structure may show the parent alone.
As a rule, pIC50 stands for the negative log10 of the concentration, concentration in M.

Noted pIC50 for CC(C)N(C)C(=O)c1coc2cc(Oc3nc4ncccc4s3)ccc12 , tested on LTB4 production in murine blood (LTA4H): 7.00

Noted pIC50 for c1ccc(CNCc2coc3cc(Oc4nc5ncccc5s4)ccc23)cc1 , tested on LTB4 production in murine blood (LTA4H): 7.00

Noted pIC50 for CC(=O)N[C@@H]1C[C@H]2CC[C@@H](C1)N2Cc1cc2ccc(Oc3nc4ncccc4s3)cc2o1 , tested on LTB4 production in murine blood (LTA4H): 7.85

Noted pIC50 for CC(=O)NC1CCN(Cc2coc3cc(Oc4nc5ncc(C)cc5s4)ccc23)CC1 [Example 251, formate] , tested on LTB4 production in murine blood (LTA4H): 6.66

Noted pIC50 for c1ccc2c(c1)CN(Cc1c[nH]c3cc(Oc4nc5ccccc5s4)ccc13)C2 , tested on LTB4 production in murine blood (LTA4H): 6.01

Noted pIC50 for NC(=O)N1C[C@H]2C[C@@H]1CN2Cc1cc2ccc(Oc3nc4ncccc4s3)cc2o1 , tested on LTB4 production in murine blood (LTA4H): 6.59

Noted pIC50 for OC1(c2ccccc2)CCN(Cc2coc3cc(Oc4nc5ncccc5s4)ccc23)CC1 , tested on LTB4 production in murine blood (LTA4H): 7.47

Noted pIC50 for CC(=O)N(C)C1CCN(Cc2coc3cc(Oc4nc5ncccc5s4)ccc23)C1 (centres unmarked) , tested on LTB4 production in murine blood (LTA4H): 7.18

Noted pIC50 for NC(=O)C1CCN(Cc2cc3cc(Oc4nc5ncccc5s4)ccc3o2)CC1 , tested on LTB4 production in murine blood (LTA4H): 6.49

Noted pIC50 for CC(=O)N1CC2CN(Cc3c[nH]c4cc(Oc5nc6ccccc6s5)ccc34)CC2C1 (centres unmarked) , tested on LTB4 production in murine blood (LTA4H): 6.78

Noted pIC50 for CN(CCC(=O)O)Cc1coc2cc(Oc3nc4ncccc4s3)ccc12 [Example 335, formate] , tested on LTB4 production in murine blood (LTA4H): 6.70

Noted pIC50 for c1ccc(C2CCN(Cc3c[nH]c4cc(Oc5nc6ccccc6s5)ccc34)CC2)cc1 , tested on LTB4 production in murine blood (LTA4H): 5.94

Noted pIC50 for CC(=O)N[C@H]1C[C@@H]2C[C@H]1CN2Cc1cc2cc(Oc3nc4ncccc4s3)ccc2o1 , tested on LTB4 production in murine blood (LTA4H): 7.20

Noted pIC50 for O=C1CCCN1C1CCN(Cc2cc3cc(Oc4nc5ncccc5s4)ccc3o2)CC1 , tested on LTB4 production in murine blood (LTA4H): 6.96

Noted pIC50 for CC(=O)N1C[C@@H]2C[C@H]1CN2Cc1c[nH]c2cc(Oc3nc4ccccc4s3)ccc12 , tested on LTB4 production in murine blood (LTA4H): 6.89

Noted pIC50 for O=C(c1ccno1)N1C[C@@H]2C[C@H]1CN2Cc1coc2cc(Oc3nc4ncccc4s3)ccc12 , tested on LTB4 production in murine blood (LTA4H): 7.85

Noted pIC50 for CS(=O)(=O)C1CCN(Cc2coc3cc(Oc4nc5ncccc5s4)ccc23)CC1 , tested on LTB4 production in murine blood (LTA4H): 7.24
